target: KDM4E (Homo sapiens); construct: KDM4DM1-L359,[39]; KDM4EM1-R336,[30]; His6 (N); made in house; host or cells: Escherichia coli; experiment: formaldehyde dehydrogenase (FDH)-coupled demethylation assay, KDM4E; format: biochemical; conditions: FDH-coupled fluorescence assay; KDM4E (400 nM), peptide 1–50 μM, HEPES pH 7.5; catalytic efficiency
Square brackets hold non-standard residues; d marks the D form. Ends that are not written are not given here. Lys(Me3) = C[N+](C)(C)CCCC[C@H](N)C(=O)O
Binary label based on kcat/KM (KDM4E) with cut-off 5000 M⁻¹ s⁻¹: below gives label 1, not below gives label 0.

INSERT INTO assay_data (substance, qualitative_label) VALUES
  ('KKKAA[Lys(Me3)]KAGGTPRKA [Peptide H1.2K25me3, 15-mer linker histone H1.2 residues 20-34 peptide, tri-methylated K25]', 'label 1'),
  ('KKKAAK[Lys(Me3)]AGGTPRKA [Peptide H1.2K26me3, 15-mer linker histone H1.2 residues 20-34 peptide, tri-methylated K26]', 'label 0'),
  ('KKKA[Lys(Me3)]KAGATAGKRK [Peptide H1.3K24me3, 15-mer linker histone H1.3 residues 20-34 peptide, tri-methylated K24]', 'label 0'),
  ('KKKATK[Lys(Me3)]AAGAGAAK [Peptide H1.5K26me3, 15-mer linker histone H1.5 residues 20-34 peptide, tri-methylated K26]', 'label 0'),
  ('KKKAR[Lys(Me3)]SAGAAKRKA [Peptide H1.4K25me3, 15-mer linker histone H1.4 residues 20-34 peptide, tri-methylated K25]', 'label 1');

###

Entries and their kcat/KM (KDM4D) values follow.
target: KDM4D (Homo sapiens, UniProt Q6B0I6); construct: KDM4AM1-L359,[38]; KDM4DM1-L359,[39]; KDM4EM1-R336,[30]; His6 (N); made in house; host or cells: Escherichia coli; assay: formaldehyde dehydrogenase (FDH)-coupled demethylation assay, KDM4D; type: biochemical; conditions: FDH-coupled fluorescence assay; KDM4D (400 nM), H1 peptide 1–50 μM, HEPES pH 7.5; catalytic efficiency
Sequence (Q6B0I6 1-359): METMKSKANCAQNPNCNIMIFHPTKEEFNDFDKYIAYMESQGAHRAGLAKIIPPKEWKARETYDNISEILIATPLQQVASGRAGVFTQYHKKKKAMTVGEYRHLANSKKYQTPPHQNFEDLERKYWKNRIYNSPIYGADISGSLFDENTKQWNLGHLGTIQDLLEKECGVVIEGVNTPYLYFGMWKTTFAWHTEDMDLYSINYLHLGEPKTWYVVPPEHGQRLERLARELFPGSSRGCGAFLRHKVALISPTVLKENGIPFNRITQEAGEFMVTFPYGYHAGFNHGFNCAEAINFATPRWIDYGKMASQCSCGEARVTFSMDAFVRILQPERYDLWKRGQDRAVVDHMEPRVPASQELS
Square brackets hold non-standard residues; d marks the D form. Ends that are not written are not given here. Lys(Me3) = C[N+](C)(C)CCCC[C@H](N)C(=O)O
reported_metric: kcat/KM (KDM4D) (µM⁻¹ min⁻¹)

INSERT INTO assay_data (substance, reported_metric, reported_value) VALUES
  ('KKKAR[Lys(Me3)]SAGAAKRKA [Peptide H1.4K25me3, 15-mer linker histone H1.4 residues 20-34 peptide, tri-methylated K25]', 'kcat/KM (KDM4D)', 0.044),
  ('KKKATK[Lys(Me3)]AAGAGAAK [Peptide H1.5K26me3, 15-mer linker histone H1.5 residues 20-34 peptide, tri-methylated K26]', 'kcat/KM (KDM4D)', 0.192),
  ('KKKAAK[Lys(Me3)]AGGTPRKA [Peptide H1.2K26me3, 15-mer linker histone H1.2 residues 20-34 peptide, tri-methylated K26]', 'kcat/KM (KDM4D)', 0.063),
  ('KKKA[Lys(Me3)]KAGATAGKRK [Peptide H1.3K24me3, 15-mer linker histone H1.3 residues 20-34 peptide, tri-methylated K24]', 'kcat/KM (KDM4D)', 0.066);

###

biological target: KDM4E (Homo sapiens, UniProt B2RXH2); construct: KDM4DM1-L359,[39]; KDM4EM1-R336,[30]; His6 (N); made in house; host or cells: Escherichia coli; assay: LC-MS demethylation activity assay, KDM4E; assay type: biochemical; settings: 2 μM KDM4E, 10 μM peptide, 10 μM FAS, 100 μM LAA, 20 μM 2OG, HEPES pH 7.5, 2 h, room temperature
Sequence (B2RXH2 1-336): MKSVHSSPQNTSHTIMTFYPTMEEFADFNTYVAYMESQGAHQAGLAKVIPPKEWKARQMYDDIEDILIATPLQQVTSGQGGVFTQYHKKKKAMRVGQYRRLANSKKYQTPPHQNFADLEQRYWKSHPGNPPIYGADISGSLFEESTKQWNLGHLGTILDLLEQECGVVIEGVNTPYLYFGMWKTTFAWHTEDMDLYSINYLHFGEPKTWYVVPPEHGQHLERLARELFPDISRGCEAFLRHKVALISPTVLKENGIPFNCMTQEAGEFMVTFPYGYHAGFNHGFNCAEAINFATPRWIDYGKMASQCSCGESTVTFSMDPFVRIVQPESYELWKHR
Square brackets hold non-standard residues; d marks the D form. Ends that are not written are not given here. Lys(Me3) = C[N+](C)(C)CCCC[C@H](N)C(=O)O; Lys(Me2) = CN(C)CCCC[C@H](N)C(=O)O
reported_metric: substrate conversion (demethylation) by KDM4E

INSERT INTO measurements (substance, tested_on, reported_value) VALUES
  ('KKKATK[Lys(Me2)]AAGAGAAK [Peptide H1.5K26me2, 15-mer linker histone H1.5 residues 20-34 peptide, di-methylated K26]', 'KDM4E (Homo sapiens, UniProt B2RXH2)', '> 40%'),
  ('KKKA[Lys(Me3)]KAGATAGKRK [Peptide H1.3K24me3, 15-mer linker histone H1.3 residues 20-34 peptide, tri-methylated K24]', 'KDM4E (Homo sapiens, UniProt B2RXH2)', '~80%'),
  ('KKKAAK[Lys(Me3)]AGGTPRKA [Peptide H1.2K26me3, 15-mer linker histone H1.2 residues 20-34 peptide, tri-methylated K26]', 'KDM4E (Homo sapiens, UniProt B2RXH2)', '~80%');

###

Target: KDM4D (Homo sapiens)
Construct: KDM4AM1-L359,[38]; KDM4DM1-L359,[39]; KDM4EM1-R336,[30]; His6 (N); made in house; host or cells: Escherichia coli
Experiment: LC-MS demethylation activity assay, KDM4D
Type: biochemical
Details: 2 μM KDM, 10 μM H1/H3 peptide, 10 μM FAS, 100 μM LAA, 20 μM 2OG, 50 mM HEPES pH 7.5, 2 h, room temperature, D (di-) initial methylation state
Description: The substrate specificity of JmjC KDMs for H1 was examined using liquid chromatography coupled to mass spectrometry (LC-MS) assays. The H1 peptides (10 μM) were incubated with the recombinant KDM (2 μM) in HEPES buffer at pH 7.5 at room temperature for 2 h, in the presence of ferrous(II) ammonium sulfate (FAS, 10 μM), sodium ascorbate (LAA, 100 μM) and 2OG (20 μM), and then quenched with formic acid. […]
Square brackets hold non-standard residues; d marks the D form. Ends that are not written are not given here. Lys(Me2) = CN(C)CCCC[C@H](N)C(=O)O
reported_metric: KDM4D demethylation activity, D

INSERT INTO measurements (substance, reported_value) VALUES
  ('KKKAA[Lys(Me2)]KAGGTPRKA [Peptide H1.2K25me2, 15-mer linker histone H1.2 residues 20-34 peptide, di-methylated K25]', '● [red]'),
  ('KKKAK[Lys(Me2)]AGATAGKRK [Peptide H1.3K25me2, 15-mer linker histone H1.3 residues 20-34 peptide, di-methylated K25]', '● [red]'),
  ('KKKAT[Lys(Me2)]KAAGAGAAK [Peptide H1.5K25me2, 15-mer linker histone H1.5 residues 20-34 peptide, di-methylated K25]', '● [red]');

###

Entries and their di-methylated product formed by KDM4D values follow.
target: KDM4D (Homo sapiens); construct: KDM4AM1-L359,[38]; KDM4DM1-L359,[39]; KDM4EM1-R336,[30]; His6 (N); made in house; host or cells: Escherichia coli; assay: LC-MS demethylation activity assay, KDM4D; format: biochemical; conditions: 2 μM KDM4D, 10 μM peptide, standard conditions, 2 h, room temperature
Square brackets hold non-standard residues; d marks the D form. Ends that are not written are not given here. Lys(Me3) = C[N+](C)(C)CCCC[C@H](N)C(=O)O
reported_metric: di-methylated product formed by KDM4D

INSERT INTO results (substance, reported_value) VALUES
  ('KKKA[Lys(Me3)]KAGATAGKRK [Peptide H1.3K24me3, 15-mer linker histone H1.3 residues 20-34 peptide, tri-methylated K24]', '~30%'),
  ('KKKAT[Lys(Me3)]KAAGAGAAK [Peptide H1.5K25me3, 15-mer linker histone H1.5 residues 20-34 peptide, tri-methylated K25]', '< 5%'),
  ('KKKAAK[Lys(Me3)]AGGTPRKA [Peptide H1.2K26me3, 15-mer linker histone H1.2 residues 20-34 peptide, tri-methylated K26]', '~30%'),
  ('KKKAK[Lys(Me3)]AGATAGKRK [Peptide H1.3K25me3, 15-mer linker histone H1.3 residues 20-34 peptide, tri-methylated K25]', '< 5%'),
  ('KKKAR[Lys(Me3)]SAGAAKRKA [Peptide H1.4K25me3, 15-mer linker histone H1.4 residues 20-34 peptide, tri-methylated K25]', '~30%');

###

target: KDM4E (Homo sapiens, UniProt B2RXH2); construct: KDM4DM1-L359,[39]; KDM4EM1-R336,[30]; His6 (N); made in house; host or cells: Escherichia coli; experiment: formaldehyde dehydrogenase (FDH)-coupled demethylation assay, KDM4E; type: biochemical; details: FDH-coupled fluorescence assay; KDM4E (400 nM), peptide 1–50 μM, FAS 20 μM, LAA 200 μM, 2OG 200 μM, NAD+ 500 μM, FDH 2.0 μM, HEPES pH 7.5; mean ± SEM (n = 3)
Square brackets hold non-standard residues; d marks the D form. Ends that are not written are not given here. Lys(Me3) = C[N+](C)(C)CCCC[C@H](N)C(=O)O
reported_metric: Km (µM)

INSERT INTO results (substance, reported_metric, reported_value) VALUES
  ('KKKA[Lys(Me3)]KAGATAGKRK [Peptide H1.3K24me3, 15-mer linker histone H1.3 residues 20-34 peptide, tri-methylated K24]', 'Km', 6.45),
  ('KKKAAK[Lys(Me3)]AGGTPRKA [Peptide H1.2K26me3, 15-mer linker histone H1.2 residues 20-34 peptide, tri-methylated K26]', 'Km', 5.22),
  ('KKKAR[Lys(Me3)]SAGAAKRKA [Peptide H1.4K25me3, 15-mer linker histone H1.4 residues 20-34 peptide, tri-methylated K25]', 'Km', 11.5),
  ('KKKATK[Lys(Me3)]AAGAGAAK [Peptide H1.5K26me3, 15-mer linker histone H1.5 residues 20-34 peptide, tri-methylated K26]', 'Km', 4.04),
  ('KKKAA[Lys(Me3)]KAGGTPRKA [Peptide H1.2K25me3, 15-mer linker histone H1.2 residues 20-34 peptide, tri-methylated K25]', 'Km', 18.5);

FYI, the data here is from paper PMC12363342.
